PROCEDURE TEXT: Protocol B: fipamezole administered as buccal spray to healthy volunteers, pharmacokinetics and tolerability
Assay type: in vivo, human
CONDITIONS: male, human, plasma, dose 7.5 mg
QUANTITY: AUC(0-t) (ng·h/mL)
Answer with a number only, understood to be in ng·h/mL.

Item: CCC1(c2c[nH]cn2)Cc2ccc(F)cc2C1.Cl (stereo not shown) | AUC(0-t): 40.8

* * *

PROCEDURE TEXT: Protocol B: fipamezole administered as buccal spray to healthy volunteers, pharmacokinetics and tolerability
Format: in vivo, human
CONDITIONS: male, human, plasma, dose 90 mg, read-out: t1/2 (converted)
Experimental: Fipamezole was administered orally in solution in increasing doses (0.5, 1, 3, 9, 18, 30 and 60 mg) to healthy volunteers (Caucasian males, 18-35 years old, 60-90 kg body weight). […] Concentrations of fipamezole in plasma were measured with HPLC-MS/MS. Safety and tolerability were evaluated by standard safety laboratory determinations, ECG recordings, blood pressure and heart rate measurements and by adverse event questioning. […]
QUANTITY: half-life (h)
Answer with a number only, understood to be in h.

Item: CCC1(c2c[nH]cn2)Cc2ccc(F)cc2C1.Cl (stereo not shown) [fipamezole] | half-life: 3.16

* * *

PROCEDURE TEXT: Protocol A: fipamezole administered orally in solution to healthy volunteers, pharmacokinetics, safety and tolerability
Format: in vivo, human
CONDITIONS: male, human, plasma; oral solution, dose 0.5 mg
QUANTITY: Tmax
# do not omit the unit; it follows the number

Item: CCC1(c2c[nH]cn2)Cc2ccc(F)cc2C1.Cl (stereo not shown) | Tmax: 52.8 min

* * *

PROCEDURE TEXT: Protocol A: fipamezole administered orally in solution to healthy volunteers, pharmacokinetics, safety and tolerability
Format: in vivo, human
CONDITIONS: male, human, plasma; oral solution, dose 60 mg
QUANTITY: half-life (h)
Answer with a number only, understood to be in h.

Item: CCC1(c2c[nH]cn2)Cc2ccc(F)cc2C1.Cl (stereo not shown) [fipamezole] | half-life: 1.8

* * *

PROCEDURE TEXT: Protocol B: fipamezole administered as buccal spray to healthy volunteers, pharmacokinetics and tolerability
Format: in vivo, human
CONDITIONS: male, dose 90 mg, human plasma, read-out: Cmax
QUANTITY: Cmax (ng/mL)
Answer with a number only, understood to be in ng/mL.

Item: CCC1(c2c[nH]cn2)Cc2ccc(F)cc2C1.Cl (stereo not shown) | Cmax: 172

* * *

PROCEDURE TEXT: Protocol B: fipamezole administered as buccal spray to healthy volunteers, pharmacokinetics and tolerability
Type: in vivo, human
CONDITIONS: male, dose 1.5 mg, human plasma, read-out: Cmax
QUANTITY: Cmax (ng/mL)
Answer with a number only, understood to be in ng/mL.

Item: CCC1(c2c[nH]cn2)Cc2ccc(F)cc2C1.Cl (stereo not shown) [fipamezole] | Cmax: 3.13

* * *

PROCEDURE TEXT: Protocol B: fipamezole administered as buccal spray to healthy volunteers, pharmacokinetics and tolerability
Type: in vivo, human
CONDITIONS: male, dose 60 mg, human plasma, read-out: Cmax
Procedure: Fipamezole was administered orally in solution in increasing doses (0.5, 1, 3, 9, 18, 30 and 60 mg) to healthy volunteers (Caucasian males, 18-35 years old, 60-90 kg body weight). […] Concentrations of fipamezole in plasma were measured with HPLC-MS/MS. Safety and tolerability were evaluated by standard safety laboratory determinations, ECG recordings, blood pressure and heart rate measurements and by adverse event questioning. […]
QUANTITY: Cmax
# do not omit the unit; it follows the number

Item: CCC1(c2c[nH]cn2)Cc2ccc(F)cc2C1.Cl (stereo not shown) [fipamezole] | Cmax: 0.0929 µg/mL

* * *

PROCEDURE TEXT: Protocol B: fipamezole administered as buccal spray to healthy volunteers, pharmacokinetics and tolerability
Type: in vivo, human
CONDITIONS: male, human, plasma, dose 90 mg, read-out: tmax
QUANTITY: Tmax
# do not omit the unit; it follows the number

Item: CCC1(c2c[nH]cn2)Cc2ccc(F)cc2C1.Cl (stereo not shown) [fipamezole] | Tmax: 31.8 min

* * *

PROCEDURE TEXT: Protocol B: fipamezole administered as buccal spray to healthy volunteers, pharmacokinetics and tolerability
Assay type: in vivo, human
CONDITIONS: male, human, plasma, dose 0.75 mg
QUANTITY: AUC(0-t) (ng·h/mL)
Answer with a number only, understood to be in ng·h/mL.

Item: CCC1(c2c[nH]cn2)Cc2ccc(F)cc2C1.Cl (stereo not shown) | AUC(0-t): 4.6

* * *

PROCEDURE TEXT: Protocol A: fipamezole administered orally in solution to healthy volunteers, pharmacokinetics, safety and tolerability
Type: in vivo, human
CONDITIONS: male, human, plasma; oral solution, dose 30 mg
QUANTITY: AUC(0-t)
# do not omit the unit; it follows the number

Item: CCC1(c2c[nH]cn2)Cc2ccc(F)cc2C1.Cl (stereo not shown) | AUC(0-t): 6.8 ng·h/mL
